# target-under-test: recombinant cynomolgus monkey CD3ε/δ heterodimer (cynomolgus monkey) (UniProt Q95LI5)
# Sequence (Q95LI5 22-117, stated change not applied, chain 1 of 2): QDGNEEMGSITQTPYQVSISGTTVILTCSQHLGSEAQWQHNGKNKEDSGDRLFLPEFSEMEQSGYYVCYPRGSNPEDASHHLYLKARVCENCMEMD
# Sequence (Q95LI8 22-105, stated change not applied, chain 2 of 2, further chain): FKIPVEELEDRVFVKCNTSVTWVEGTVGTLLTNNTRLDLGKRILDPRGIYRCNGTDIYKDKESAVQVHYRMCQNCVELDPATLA
# protocol-details: BLI (Octet), antigen on anti-Penta His sensor, antibody 50 nM
Listed here: items and their measured kon.
measured-parameter: kon (M⁻¹ s⁻¹)

>>> experimental_value("H15 (antibody, human IgG1, lambda, L234A L235A, V domains shown) VH: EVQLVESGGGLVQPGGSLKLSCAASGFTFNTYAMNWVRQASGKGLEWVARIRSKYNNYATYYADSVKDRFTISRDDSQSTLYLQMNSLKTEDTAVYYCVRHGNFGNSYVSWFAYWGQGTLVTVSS VL: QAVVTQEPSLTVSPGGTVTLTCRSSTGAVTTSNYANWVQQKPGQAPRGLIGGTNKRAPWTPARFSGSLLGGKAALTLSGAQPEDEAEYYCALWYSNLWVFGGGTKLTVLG")
230000
>>> experimental_value("C16 (antibody, human IgG1, lambda, L234A L235A, V domains shown) VH: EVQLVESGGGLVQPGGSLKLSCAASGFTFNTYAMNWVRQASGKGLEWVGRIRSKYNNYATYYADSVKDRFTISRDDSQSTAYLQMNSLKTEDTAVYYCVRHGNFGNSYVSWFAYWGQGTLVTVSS VL: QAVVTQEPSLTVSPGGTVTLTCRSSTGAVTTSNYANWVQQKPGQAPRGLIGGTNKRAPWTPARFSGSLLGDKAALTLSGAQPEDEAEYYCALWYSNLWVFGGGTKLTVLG")
384000
>>> experimental_value("C15 (antibody, human IgG1, lambda, L234A L235A, V domains shown) VH: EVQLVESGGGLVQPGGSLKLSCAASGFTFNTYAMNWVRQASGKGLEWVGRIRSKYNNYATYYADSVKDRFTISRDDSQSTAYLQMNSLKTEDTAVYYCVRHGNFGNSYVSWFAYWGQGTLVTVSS VL: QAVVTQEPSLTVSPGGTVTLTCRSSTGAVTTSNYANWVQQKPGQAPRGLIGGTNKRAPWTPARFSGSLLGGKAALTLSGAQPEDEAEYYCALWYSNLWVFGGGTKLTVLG")
525000
>>> experimental_value("D08 (antibody, human IgG1, lambda, L234A L235A, V domains shown) VH: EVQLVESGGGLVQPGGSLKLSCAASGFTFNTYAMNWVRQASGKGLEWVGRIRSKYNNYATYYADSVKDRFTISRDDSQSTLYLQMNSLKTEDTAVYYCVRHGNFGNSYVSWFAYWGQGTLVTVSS VL: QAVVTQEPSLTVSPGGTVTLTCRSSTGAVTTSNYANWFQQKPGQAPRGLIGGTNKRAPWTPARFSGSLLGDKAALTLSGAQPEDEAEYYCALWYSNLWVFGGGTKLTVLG")
123000
>>> experimental_value("Mouse human chimeric SP34 IgG1 antibody (antibody, V domains shown) VH: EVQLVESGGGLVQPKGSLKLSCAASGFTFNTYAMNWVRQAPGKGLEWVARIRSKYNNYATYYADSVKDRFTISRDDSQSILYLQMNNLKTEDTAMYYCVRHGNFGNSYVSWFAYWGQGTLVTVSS VL: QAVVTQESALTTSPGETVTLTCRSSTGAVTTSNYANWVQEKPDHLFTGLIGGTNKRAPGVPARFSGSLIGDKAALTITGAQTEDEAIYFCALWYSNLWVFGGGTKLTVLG")
378000
>>> experimental_value("F16 (antibody, human IgG1, lambda, L234A L235A, V domains shown) VH: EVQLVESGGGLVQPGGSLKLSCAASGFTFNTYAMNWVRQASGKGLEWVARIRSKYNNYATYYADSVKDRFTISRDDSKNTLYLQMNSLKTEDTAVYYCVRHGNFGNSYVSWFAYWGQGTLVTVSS VL: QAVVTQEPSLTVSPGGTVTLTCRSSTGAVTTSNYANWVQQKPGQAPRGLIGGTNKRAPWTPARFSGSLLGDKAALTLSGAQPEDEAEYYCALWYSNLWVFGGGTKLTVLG")
185000
>>> experimental_value("E15 (antibody, human IgG1, lambda, L234A L235A, V domains shown) VH: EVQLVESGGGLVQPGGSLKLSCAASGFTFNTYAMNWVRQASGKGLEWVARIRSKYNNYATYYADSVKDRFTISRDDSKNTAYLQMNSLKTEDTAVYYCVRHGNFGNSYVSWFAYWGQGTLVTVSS VL: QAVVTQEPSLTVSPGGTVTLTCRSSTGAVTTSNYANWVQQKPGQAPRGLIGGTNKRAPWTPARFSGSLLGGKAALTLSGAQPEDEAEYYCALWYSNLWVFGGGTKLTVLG")
290000
>>> experimental_value("A08 (antibody, human IgG1, lambda, L234A L235A, V domains shown) VH: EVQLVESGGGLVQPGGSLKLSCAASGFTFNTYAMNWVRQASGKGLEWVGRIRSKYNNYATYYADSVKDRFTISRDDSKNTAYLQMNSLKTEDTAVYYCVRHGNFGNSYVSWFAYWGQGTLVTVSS VL: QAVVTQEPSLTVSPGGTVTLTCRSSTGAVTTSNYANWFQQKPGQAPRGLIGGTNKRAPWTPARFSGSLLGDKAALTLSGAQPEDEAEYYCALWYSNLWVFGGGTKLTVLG")
147000
>>> experimental_value("A07 (antibody, human IgG1, lambda, L234A L235A, V domains shown) VH: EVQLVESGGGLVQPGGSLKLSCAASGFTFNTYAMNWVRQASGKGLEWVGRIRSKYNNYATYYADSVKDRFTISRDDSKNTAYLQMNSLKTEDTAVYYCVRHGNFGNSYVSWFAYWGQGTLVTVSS VL: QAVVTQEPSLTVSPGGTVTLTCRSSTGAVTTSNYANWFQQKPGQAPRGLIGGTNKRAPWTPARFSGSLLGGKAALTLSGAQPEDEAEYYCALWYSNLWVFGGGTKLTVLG")
153000
>>> experimental_value("D16 (antibody, human IgG1, lambda, L234A L235A, V domains shown) VH: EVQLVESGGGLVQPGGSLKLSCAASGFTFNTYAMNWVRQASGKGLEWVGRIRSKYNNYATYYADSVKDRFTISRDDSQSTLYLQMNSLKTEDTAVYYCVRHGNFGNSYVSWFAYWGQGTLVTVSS VL: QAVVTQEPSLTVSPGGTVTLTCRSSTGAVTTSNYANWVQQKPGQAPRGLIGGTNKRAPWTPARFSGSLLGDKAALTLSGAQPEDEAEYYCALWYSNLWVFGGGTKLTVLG")
356000
